- System: absorption of sodium from the intestinal lumen
- protocolDescription: Inhibition of intestinal sodium absorption in mice
- Assay type: in vivo
- assaySetup: CD-1 mice, 15 mg/kg oral gavage twice daily, day 3, change from vehicle group mean

# lineNotation, Fecal fluid content (Δ from vehicle)
rows = [
    ("O=C(NCCCCNC(=O)NCCOCCOCCNS(=O)(=O)c1ccc(O[C@H]2c3cc(Cl)cc(Cl)c3C[C@@H]2N2CCNCC2)cc1)NCCOCCOCCNS(=O)(=O)c1ccc(O[C@H]2c3cc(Cl)cc(Cl)c3C[C@@H]2N2CCNCC2)cc1", "B (5-10)"),
    ("Cc1cc(S(=O)(=O)NCCOCCOCCNC(=O)NCCCCNC(=O)NCCOCCOCCNS(=O)(=O)c2ccc(O[C@H]3c4cc(Cl)cc(C)c4C[C@@H]3N(C)C)c(C)c2)ccc1O[C@H]1c2cc(Cl)cc(C)c2C[C@@H]1N(C)C", "B (5-10)"),
    ("Cc1cc(S(=O)(=O)N[C@@H]2CCN(CCOCCNC(=O)NCCCCNC(=O)NCCOCCN3CC[C@@H](NS(=O)(=O)c4ccc(O[C@H]5c6cc(Cl)cc(Cl)c6C[C@@H]5N(C)C)c(C)c4)C3)C2)ccc1O[C@H]1c2cc(Cl)cc(Cl)c2C[C@@H]1N(C)C", "B (5-10)"),
]

###

- system: NHE3 (Homo sapiens)
- Construct: expressed in transfected cells
- protocolDescription: Cell-based assay of NHE-3 activity (pre-incubation inhibition), human
- assaySetup: human Preincubation

# lineNotation, system, % inhibition
measured = [
    ("N[C@@H]1CCCN([C@H]2Cc3c(Cl)cc(Cl)cc3[C@@H]2Oc2ccc(S(=O)(=O)NCCOCCOCCn3cc(CNC(=O)NCCCCNC(=O)NCc4cn(CCOCCOCCNS(=O)(=O)c5ccc(O[C@H]6c7cc(Cl)cc(Cl)c7C[C@@H]6N6CCC[C@@H](N)C6)cc5)nn4)nn3)cc2)C1", "NHE3 (Homo sapiens)", "C (>70%)"),
    ("C[C@H]1CN([C@H]2Cc3c(C#N)cc(Cl)cc3[C@@H]2Oc2ccc(S(=O)(=O)N[C@H]3CCN(CCOCCNC(=O)NCCCCNC(=O)NCCOCCN4CC[C@H](NS(=O)(=O)c5ccc(O[C@H]6c7cc(Cl)cc(C#N)c7C[C@@H]6N6CCN[C@@H](C)C6)cc5)C4)C3)cc2)CCN1", "NHE3 (Homo sapiens)", "C (>70%)"),
    ("O=C(NCCCCNC(=O)NCCOCCN1CC[C@@H](NS(=O)(=O)c2ccc(O[C@H]3c4cc(Cl)cc(Cl)c4C[C@@H]3N3CCNCC3)c(F)c2)C1)NCCOCCN1CC[C@@H](NS(=O)(=O)c2ccc(O[C@H]3c4cc(Cl)cc(Cl)c4C[C@@H]3N3CCNCC3)c(F)c2)C1", "NHE3 (Homo sapiens)", "C (>70%)"),
]

###

- system: NHE3 (Homo sapiens, UniProt P48764)
- Construct: expressed in transfected cells
- Sequence (P48764 26-834): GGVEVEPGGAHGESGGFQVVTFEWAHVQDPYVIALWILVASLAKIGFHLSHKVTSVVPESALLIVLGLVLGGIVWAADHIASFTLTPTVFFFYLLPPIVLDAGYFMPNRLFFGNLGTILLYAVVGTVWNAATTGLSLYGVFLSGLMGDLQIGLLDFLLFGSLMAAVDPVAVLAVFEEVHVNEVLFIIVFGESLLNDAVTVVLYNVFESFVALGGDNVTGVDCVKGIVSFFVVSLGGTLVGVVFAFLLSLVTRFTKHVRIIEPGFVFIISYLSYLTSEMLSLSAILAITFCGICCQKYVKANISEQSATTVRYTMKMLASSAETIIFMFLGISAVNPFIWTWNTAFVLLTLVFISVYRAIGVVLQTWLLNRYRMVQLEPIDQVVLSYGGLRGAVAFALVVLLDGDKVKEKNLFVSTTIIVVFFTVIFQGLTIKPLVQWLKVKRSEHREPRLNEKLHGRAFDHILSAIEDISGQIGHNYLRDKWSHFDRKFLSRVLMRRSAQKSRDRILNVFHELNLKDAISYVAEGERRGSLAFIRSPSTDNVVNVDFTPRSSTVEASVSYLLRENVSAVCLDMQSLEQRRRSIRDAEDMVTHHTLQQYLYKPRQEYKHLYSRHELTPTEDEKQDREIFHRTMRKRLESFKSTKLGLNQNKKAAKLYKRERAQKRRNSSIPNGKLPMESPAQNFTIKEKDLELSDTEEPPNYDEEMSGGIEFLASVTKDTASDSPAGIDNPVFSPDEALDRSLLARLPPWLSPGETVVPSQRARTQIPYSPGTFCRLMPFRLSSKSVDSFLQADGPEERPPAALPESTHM
- Sequence (Q99653 2-195 partner limits assumed): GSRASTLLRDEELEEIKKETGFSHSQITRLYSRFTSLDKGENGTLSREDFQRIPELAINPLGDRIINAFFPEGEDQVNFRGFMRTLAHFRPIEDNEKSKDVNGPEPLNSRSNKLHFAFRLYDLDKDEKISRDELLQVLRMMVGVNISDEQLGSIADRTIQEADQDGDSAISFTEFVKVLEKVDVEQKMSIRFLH
- protocolDescription: Cell-based assay of NHE-3 activity (persistent inhibition), human
- assaySetup: human Persistence, 60 min incubation then washout
pIC50: −log10 of the molar value.
Recorded pIC50 values for a group of compounds are listed next.
measuredMetric: pIC50

# lineNotation, system, measValue
records = [
    ("COc1cc(Cl)cc2c1C[C@H](N1CCC[C@@H](N)C1)[C@H]2Oc1ccc(S(=O)(=O)NCCOCCOCCNC(=O)NCCCCNC(=O)NCCOCCOCCNS(=O)(=O)c2ccc(O[C@H]3c4cc(Cl)cc(OC)c4C[C@@H]3N3CCC[C@@H](N)C3)c(C)c2)cc1C", "NHE3 (Homo sapiens, UniProt P48764)", "6.00 to 7.00"),
    ("N[C@@H]1CCCN([C@H]2Cc3c(Cl)cc(Cl)cc3[C@@H]2Oc2ccc(S(=O)(=O)NCCCCn3cc(CNC(=O)NCCCCNC(=O)NCc4cn(CCCCNS(=O)(=O)c5ccc(O[C@H]6c7cc(Cl)cc(Cl)c7C[C@@H]6N6CCC[C@@H](N)C6)cc5)nn4)nn3)cc2)C1", "NHE3 (Homo sapiens, UniProt P48764)", "> 7.00"),
    ("N#Cc1cc(Cl)cc2c1C[C@H](N1CCCNCC1)[C@H]2Oc1ccc(S(=O)(=O)N[C@@H]2CCN(CCOCCNC(=O)NCCCCNC(=O)NCCOCCN3CC[C@@H](NS(=O)(=O)c4ccc(O[C@H]5c6cc(Cl)cc(C#N)c6C[C@@H]5N5CCCNCC5)cc4)C3)C2)cc1", "NHE3 (Homo sapiens, UniProt P48764)", "> 7.00"),
    ("Cc1cc(S(=O)(=O)NCCOCCOCCNC(=O)NCCCCNC(=O)NCCOCCOCCNS(=O)(=O)c2cc(C)c(O[C@H]3c4cc(Cl)cc(Cl)c4C[C@@H]3N3CCC[C@@H](N)C3)cc2C)c(C)cc1O[C@H]1c2cc(Cl)cc(Cl)c2C[C@@H]1N1CCC[C@@H](N)C1", "NHE3 (Homo sapiens, UniProt P48764)", "6.00 to 7.00"),
    ("CN(C)[C@H]1Cc2c(C#N)cc(Cl)cc2[C@@H]1Oc1ccc(S(=O)(=O)NCCOCCOCCNC(=O)NCCCCNC(=O)NCCOCCOCCNS(=O)(=O)c2ccc(O[C@H]3c4cc(Cl)cc(C#N)c4C[C@@H]3N(C)C)cc2)cc1", "NHE3 (Homo sapiens, UniProt P48764)", "6.00 to 7.00"),
    ("Cc1cc(S(=O)(=O)N2CC[C@H](COCCOCCNC(=O)NCCCCNC(=O)NCCOCCOC[C@H]3CCN(S(=O)(=O)c4ccc(O[C@H]5c6cc(Cl)cc(C#N)c6C[C@@H]5N(C)C)c(C)c4)C3)C2)ccc1O[C@H]1c2cc(Cl)cc(C#N)c2C[C@@H]1N(C)C", "NHE3 (Homo sapiens, UniProt P48764)", "> 7.00"),
    ("C[C@H]1CCCCN1[C@H]1Cc2c(Cl)cc(Cl)cc2[C@@H]1Oc1ccc(S(=O)(=O)NCCOCCOCCNC(=O)NCCCCNC(=O)NCCOCCOCCNS(=O)(=O)c2ccc(O[C@H]3c4cc(Cl)cc(Cl)c4C[C@@H]3N3CCCC[C@@H]3C)cc2)cc1", "NHE3 (Homo sapiens, UniProt P48764)", "6.00 to 7.00"),
]

###

- system: NHE3 (Homo sapiens)
- Construct: expressed in transfected cells
- protocolDescription: Cell-based assay of NHE-3 activity (persistent inhibition), human
- assaySetup: human Persistence, 60 min incubation then washout
measuredMetric: pIC50

# lineNotation, system, measuredMetric, measValue
rows = [
    ("CN1CCCN([C@H]2Cc3c(C#N)cc(Cl)cc3[C@@H]2Oc2ccc(S(=O)(=O)N[C@@H]3CCN(CCOCCNC(=O)NCCCCNC(=O)NCCOCCN4CC[C@@H](NS(=O)(=O)c5ccc(O[C@H]6c7cc(Cl)cc(C#N)c7C[C@@H]6N6CCCN(C)CC6)cc5)C4)C3)cc2)CC1", "NHE3 (Homo sapiens)", "pIC50", "C (NHE3 pIC50 > 7)"),
    ("N[C@@H]1CCCN([C@H]2Cc3c(Cl)cc(Cl)cc3[C@@H]2Oc2ccc(S(=O)(=O)NCCOCCOCCNC(=O)NCCCCNC(=O)NCCOCCOCCNS(=O)(=O)c3ccc(O[C@H]4c5cc(Cl)cc(Cl)c5C[C@@H]4N4CCC[C@@H](N)C4)cc3F)c(F)c2)C1", "NHE3 (Homo sapiens)", "pIC50", "C (NHE3 pIC50 > 7)"),
    ("N#Cc1cc(Cl)cc2c1C[C@H](N1CCNCC1)[C@H]2Oc1ccc(S(=O)(=O)N[C@@H]2CCN(CCOCCNC(=O)NCCCCNC(=O)NCCOCCN3CC[C@@H](NS(=O)(=O)c4ccc(O[C@H]5c6cc(Cl)cc(C#N)c6C[C@@H]5N5CCNCC5)c(F)c4)C3)C2)cc1F", "NHE3 (Homo sapiens)", "pIC50", "C (NHE3 pIC50 > 7)"),
]
